Here, each record is paired with measured pIC50 data.
# Tested on: ERK phosphorylation in KYSE-520 cells
# method_description: Phospho-ERK cellular assay (Advanced phospho-ERK1/2 (Thr202/Tyr204) TR-FRET kit)
# Type: cell-based
# study_conditions: Homo sapiens, KYSE-520, 2 h, KYSE-520 cells, 2 h at 37° C., TR-FRET; read-out: pERK IC50
pIC50: −log10 of the molar value.

Sample records with pIC50:
Cn1cc2cccc(Sc3cnc4[nH]c(N5CCC6(CC5)Cc5ccccc5[C@H]6N)nc4n3)c2n1 | 5.30 to 6.00
N[C@@H]1c2ccccc2CC12CCN(c1nc3nc(Sc4cccc5c4OCC(=O)N5)cnc3[nH]1)CC2 | < 5.30
N[C@@H]1c2cccnc2CC12CCN(c1nc3ncc(Sc4cccc(Cl)c4Cl)nc3[nH]1)CC2 | > 6.00

Which measured pIC50 value corresponds to N[C@@H]1CCCC12CCN(c1nc3ncc(Sc4cccc(Cl)c4Cl)nc3[nH]1)CC2 ?
5.30 to 6.00

###

# study_system: SHP-2 enzyme (Met1-Leu525) (Homo sapiens)
# Construct: synthetized by Origene, Met1-Leu525, cat #TP750155
# method_description: SHP2 inhibition enzymatic assay (DiFMUP substrate, IRS1 peptide activation)
# study_conditions: SHP2 wt; activated by 500 nM IRS1 peptide; 75 μM DiFMUP substrate
Here, each record is paired with measured IC50 data.

Sample records with IC50:
N[C@@H]1c2ccccc2CC12CCN(c1nc3nc(Sc4cccc5c4C(F)(F)C(=O)N5)cnc3[nH]1)CC2 | < 0.5 µM
Cc1c(Cl)cccc1Sc1cnc2[nH]c(N3CCC(C)(N)CC3)nc2n1 | < 0.5 µM
CC1(N)CCN(c2nc3nc(Sc4ccnc5ccnn45)cnc3[nH]2)CC1 | > 3 µM
N[C@@H]1c2cccnc2CC12CCN(c1nc3nc(Sc4ccnc(Cl)c4C(F)(F)F)cnc3[nH]1)CC2 | < 0.5 µM
N[C@@H]1c2ccccc2CC12CCN(c1[nH]c3ncc(Sc4cccc(Cl)c4Cl)nc3c1Cl)CC2 | < 0.5 µM

Which measured IC50 value corresponds to N[C@@H]1c2ccccc2OC12CCN(c1nc3nc(Sc4ccncc4Cl)cnc3[nH]1)CC2 ?
< 0.5 µM

Which measured IC50 value corresponds to N[C@@H]1c2ccccc2CC12CCN(c1cc3nc(Sc4cccc(Cl)c4Cl)cnc3[nH]1)CC2 ?
< 0.5 µM

Which measured IC50 value corresponds to NCC1CN(c2nc3nc(Sc4cccnc4C(F)(F)F)cnc3[nH]2)C1 ?
0.5 to 3 µM

Which measured IC50 value corresponds to NC1CCCN(c2nc3nc(Sc4cccnc4C(F)(F)F)cnc3[nH]2)CC1 (centres unmarked) ?
0.5 to 3 µM

Which measured IC50 value corresponds to N[C@@H]1c2cccnc2CC12CCN(c1nc3ncc(Sc4cccc5c4CCC(=O)N5)nc3[nH]1)CC2 ?
< 0.5 µM

Which measured IC50 value corresponds to C[C@@H]1OCC2(CCN(c3cc4nc(Sc5ccnc(N)c5Cl)cnc4[nH]3)CC2)[C@@H]1N ?
< 0.5 µM

Which measured IC50 value corresponds to CC1(N)CCN(c2nc3nc(Sc4cccc(CC(=O)O)c4)cnc3[nH]2)CC1 ?
< 0.5 µM

Which measured IC50 value corresponds to N[C@@H]1c2cc(F)ccc2CC12CCN(c1nc3nc(Sc4cccn5ccnc45)cnc3[nH]1)CC2 ?
< 0.5 µM

Which measured IC50 value corresponds to Cn1nc(-c2ccc(Sc3cnc4[nH]c(N5CCC(C)(N)CC5)nc4n3)s2)cc1C(F)(F)F ?
> 3 µM

Which measured IC50 value corresponds to COc1ccc2nc(Sc3cnc4[nH]c(N5CCC(C)(N)CC5)nc4n3)ccc2c1 ?
0.5 to 3 µM

Which measured IC50 value corresponds to Nc1nccc(Sc2cnc3[nH]c(N4CCC5(CC4)Cc4ncc(F)cc4[C@@H]5N)nc3n2)c1Cl ?
< 0.5 µM

Which measured IC50 value corresponds to CC1(N)CCN(c2nc3nc(Sc4ccsc4Cl)cnc3[nH]2)CC1 ?
< 0.5 µM

Which measured IC50 value corresponds to CC1(N)CCN(c2nc3nc(Sc4ccc(OC(F)(F)F)cc4)cnc3[nH]2)CC1 ?
> 3 µM

###

Here, each record is paired with measured pIC50 data.
# Tested on: ERK phosphorylation in KYSE-520 cells
# method_description: Phospho-ERK cellular assay (Advanced phospho-ERK1/2 (Thr202/Tyr204) TR-FRET kit)
# Assay type: cell-based
# study_conditions: Homo sapiens, KYSE-520, 2 h, KYSE-520 cells, 2 h at 37° C., TR-FRET; read-out: pERK IC50
pIC50: −log10 of the molar value.

Sample records with pIC50:
COc1cc2c(cc1F)[C@@H](N)C1(CCN(c3nc4ncc(Sc5ccncc5Cl)nc4[nH]3)CC1)C2 | > 6.00
N[C@@H]1c2ncccc2OC12CCN(c1nc3nc(Sc4ccncc4Cl)cnc3[nH]1)CC2 | < 5.30
N[C@@H]1c2cc(F)ccc2CC12CCN(c1nc3ncc(Sc4ccncc4F)nc3[nH]1)CC2 | > 6.00

Which measured pIC50 value corresponds to N[C@@H]1c2ccccc2OC12CCN(c1nc3nc(Sc4ccncc4Cl)cnc3[nH]1)CC2 ?
5.30 to 6.00

###

# study_system: SHP-2 enzyme (Met1-Leu525) (Homo sapiens, UniProt Q06124)
# Construct: synthetized by Origene, Met1-Leu525, cat #TP750155
# method_description: SHP2 inhibition enzymatic assay (DiFMUP substrate, IRS1 peptide activation)
# study_conditions: SHP2 wt; activated by 500 nM IRS1 peptide; 75 μM DiFMUP substrate
quantity_name: IC50

CC1(N)CCN(c2nc3ncc(Sc4cccc5ncccc45)nc3[nH]2)CC1 | < 0.5 µM
Cn1cnc(C2CCN(c3nc4nc(Sc5cccnc5C(F)(F)F)cnc4[nH]3)CC2)c1 | > 3 µM
Cc1nccc(Sc2cnc3nc(N4CCC5(CC4)Cc4ccccc4[C@H]5N)[nH]c3n2)c1Cl | < 0.5 µM
N[C@@H]1c2ccccc2CC12CCN(c1nc3ncc(Sc4ccnc5cccnc45)nc3[nH]1)CC2 | < 0.5 µM
FC(F)(F)c1ncccc1Sc1cnc2[nH]c(NCCCN3CCOCC3)nc2n1 | > 3 µM

// next entry
Which measured IC50 value corresponds to Cn1ncc2cc(Sc3cnc4nc(N5CCC(C)(N)CC5)[nH]c4n3)ccc21 ?
0.5 to 3 µM

###

Here, each record is paired with measured IC50 data.
# study_system: SHP-2 enzyme (Met1-Leu525) (Homo sapiens)
# Construct: synthetized by Origene, Met1-Leu525, cat #TP750155
# method_description: SHP2 inhibition enzymatic assay (DiFMUP substrate, IRS1 peptide activation)
# study_conditions: SHP2 wt; activated by 500 nM IRS1 peptide; 75 μM DiFMUP substrate

Sample records with IC50:
FC(F)(F)c1ncccc1Sc1cnc2[nH]c(NCCc3cn4ccccc4n3)nc2n1 [Example 43] | 500 to 3000 nM
Cn1ccc(Sc2cnc3nc(N4CCC5(CC4)Cc4ccccc4[C@H]5N)[nH]c3n2)c(Cl)c1=O [Example 166] | < 500 nM
N[C@@H]1c2ccccc2CC12CCN(c1nc3nc(Sc4ccnnc4Cl)cnc3[nH]1)CC2 [Example 247] | < 500 nM
CNC1CCN(c2nc3nc(Sc4cccnc4C(F)(F)F)cnc3[nH]2)CC1 [Example 16] | 500 to 3000 nM
COc1cnccc1Sc1cnc2nc(N3CCC4(CC3)Cc3ccccc3[C@H]4N)[nH]c2n1 [Example 177] | < 500 nM

Which measured IC50 value corresponds to N[C@@H]1c2ccccc2CC12CCN(c1nc3nc(Sc4ccnc5[nH]ccc45)cnc3[nH]1)CC2 [Example 232] ?
< 500 nM

Which measured IC50 value corresponds to Nc1cc(Sc2cnc3[nH]c(N4CCC5(CC4)Cc4ccccc4[C@H]5N)nc3n2)c(Cl)c(Cl)n1 [Example 266] ?
< 500 nM

Which measured IC50 value corresponds to N#Cc1ccc2c(c1)[C@H](N)C1(CCN(c3nc4nc(Sc5ccnc(N)c5Cl)cnc4[nH]3)CC1)C2 [Example 260] ?
< 500 nM

###

Here, each record is paired with measured IC50 data.
# study_system: SHP-2 enzyme (Met1-Leu525) (Homo sapiens, UniProt Q06124)
# Construct: synthetized by Origene, Met1-Leu525, cat #TP750155
# Sequence (Q06124 1-525): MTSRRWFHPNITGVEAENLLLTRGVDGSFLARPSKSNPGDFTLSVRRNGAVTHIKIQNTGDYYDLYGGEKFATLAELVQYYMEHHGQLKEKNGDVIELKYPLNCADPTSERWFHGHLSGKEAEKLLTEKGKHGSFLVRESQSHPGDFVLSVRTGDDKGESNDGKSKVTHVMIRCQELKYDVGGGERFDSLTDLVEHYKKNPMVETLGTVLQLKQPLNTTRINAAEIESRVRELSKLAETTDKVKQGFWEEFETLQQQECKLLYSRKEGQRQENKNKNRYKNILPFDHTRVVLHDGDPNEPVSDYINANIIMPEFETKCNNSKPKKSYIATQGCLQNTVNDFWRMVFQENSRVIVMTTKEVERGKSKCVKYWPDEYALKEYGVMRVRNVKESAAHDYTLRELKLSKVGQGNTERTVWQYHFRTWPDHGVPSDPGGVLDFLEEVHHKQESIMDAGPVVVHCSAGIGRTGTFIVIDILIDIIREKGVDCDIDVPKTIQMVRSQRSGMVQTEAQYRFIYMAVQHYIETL
# method_description: SHP2 inhibition enzymatic assay (DiFMUP substrate, IRS1 peptide activation)
# study_conditions: SHP2 wt; activated by 500 nM IRS1 peptide; 75 μM DiFMUP substrate

COC(=O)c1ccccc1Sc1cnc2[nH]c(N3CCC(C)(N)CC3)nc2n1 | 500 to 3000 nM
N[C@@H]1c2ccccc2CC12CCN(c1nc3nc(Sc4cc(Cl)nn5ccnc45)cnc3[nH]1)CC2 | < 500 nM
CC1(N)CCN(c2nc3nc(Sc4cccc(C#N)c4)cnc3[nH]2)CC1 | 500 to 3000 nM

Which measured IC50 value corresponds to CC1(N)CCN(c2nc3nc(Sc4ccccc4Br)cnc3[nH]2)CC1 ?
< 500 nM

Which measured IC50 value corresponds to N[C@@H]1c2cccc(F)c2CC12CCN(c1nc3nc(Sc4ccncc4Cl)cnc3[nH]1)CC2 ?
< 500 nM

Which measured IC50 value corresponds to N[C@@H]1c2ccccc2OC12CCN(c1nc3nc(Sc4ccnc(NC5CC5)c4Cl)cnc3[nH]1)CC2 ?
< 500 nM

Which measured IC50 value corresponds to FC(F)(F)c1ncccc1Sc1cnc2[nH]c(N3CCN4CCNCC4C3)nc2n1 (centres unmarked) ?
500 to 3000 nM

Which measured IC50 value corresponds to CC1(N)CCN(c2nc3nc(Sc4ccccc4-c4nccs4)cnc3[nH]2)CC1 ?
> 3000 nM
